Item-by-item account of pKi
# STUDY_TARGET: CDK9/cyclin T1 (Homo sapiens, UniProt P50750)
# Sequence (P50750 whole entry, species assumed): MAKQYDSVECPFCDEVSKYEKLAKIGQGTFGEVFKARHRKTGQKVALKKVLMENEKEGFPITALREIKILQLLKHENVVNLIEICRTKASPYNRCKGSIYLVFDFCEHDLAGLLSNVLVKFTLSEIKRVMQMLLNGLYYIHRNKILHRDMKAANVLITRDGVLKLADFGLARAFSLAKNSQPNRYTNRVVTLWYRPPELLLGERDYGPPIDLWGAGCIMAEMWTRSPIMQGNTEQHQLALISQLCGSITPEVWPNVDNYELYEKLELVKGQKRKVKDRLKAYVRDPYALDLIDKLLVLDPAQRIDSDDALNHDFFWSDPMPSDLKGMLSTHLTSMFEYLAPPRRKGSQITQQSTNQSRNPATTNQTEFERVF
# Sequence (O60563 whole entry partner, species assumed): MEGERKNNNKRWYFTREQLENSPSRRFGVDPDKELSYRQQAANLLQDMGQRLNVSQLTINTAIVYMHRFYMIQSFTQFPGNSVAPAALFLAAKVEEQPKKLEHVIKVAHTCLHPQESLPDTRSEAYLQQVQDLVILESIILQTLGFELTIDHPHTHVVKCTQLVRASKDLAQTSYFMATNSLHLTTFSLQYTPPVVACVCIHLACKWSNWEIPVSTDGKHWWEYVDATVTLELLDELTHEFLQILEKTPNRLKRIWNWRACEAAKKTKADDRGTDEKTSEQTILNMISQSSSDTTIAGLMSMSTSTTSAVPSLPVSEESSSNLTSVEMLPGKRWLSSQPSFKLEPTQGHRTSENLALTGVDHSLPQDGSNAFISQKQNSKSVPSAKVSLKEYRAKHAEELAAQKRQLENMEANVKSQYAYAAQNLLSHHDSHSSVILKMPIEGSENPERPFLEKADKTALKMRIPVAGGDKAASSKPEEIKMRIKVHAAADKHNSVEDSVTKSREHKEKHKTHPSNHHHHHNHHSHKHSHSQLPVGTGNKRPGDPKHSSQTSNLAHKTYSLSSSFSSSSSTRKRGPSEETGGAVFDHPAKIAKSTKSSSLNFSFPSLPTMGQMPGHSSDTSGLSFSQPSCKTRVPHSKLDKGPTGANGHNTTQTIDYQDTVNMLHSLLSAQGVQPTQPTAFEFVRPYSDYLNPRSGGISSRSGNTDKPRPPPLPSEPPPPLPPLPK
# ASSAY_PROCEDURE: Kinase assay CDK9/cyclin T1
# EXPERIMENTAL_CONTEXT: Ki calculated (Cheng-Prusoff) from experimentally determined IC50 and Km,ATP; read-out: Kinase Inhibition Ki CDK9 - cyclin T1
pKi is defined as minus the log10 of a concentration measured in mol/L.

Completed entries (count: 5):
CC(=O)NCc1cccc(Nc2nccc(-c3sc(=O)n(C)c3C)n2)c1 = 7.72
CCn1c(C)c(-c2ccnc(Nc3cccc([N+](=O)[O-])c3)n2)sc1=O = 9.52
Cc1c(-c2ccnc(Nc3cccc(CNS(=O)(=O)C(F)(F)F)c3)n2)sc(=O)n1C = 8.19
Cc1c(-c2ccnc(Nc3ccc(Cl)c(CO)c3)n2)sc(=O)n1C = 8.92
Cc1c(-c2ccnc(Nc3cccc(CNC(=O)c4ccccc4)c3)n2)sc(=O)n1C = 8.80

--- query ---
Query: What measured pKi goes with Cc1ccc([N+](=O)[O-])cc1Nc1nccc(-c2sc(=O)n(C)c2C)n1 ?
Response: 7.07

----------
# STUDY_TARGET: GSK3β (Homo sapiens, UniProt P49841)
# Sequence (P49841 whole entry): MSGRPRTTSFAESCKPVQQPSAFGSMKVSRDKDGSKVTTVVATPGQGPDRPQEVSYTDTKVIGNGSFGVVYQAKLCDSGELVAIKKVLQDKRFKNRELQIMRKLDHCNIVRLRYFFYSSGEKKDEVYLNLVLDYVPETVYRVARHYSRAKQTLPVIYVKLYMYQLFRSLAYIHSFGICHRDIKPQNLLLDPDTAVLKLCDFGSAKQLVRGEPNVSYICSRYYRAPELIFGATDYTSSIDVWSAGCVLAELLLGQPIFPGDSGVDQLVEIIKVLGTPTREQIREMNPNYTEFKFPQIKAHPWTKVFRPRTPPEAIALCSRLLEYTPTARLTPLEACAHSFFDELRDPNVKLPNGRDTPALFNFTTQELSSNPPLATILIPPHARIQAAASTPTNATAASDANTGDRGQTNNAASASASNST
# ASSAY_PROCEDURE: GSK3β in vitro kinase assay
# EXPERIMENTAL_CONTEXT: recombinant human GSK3β, 100 μM ATP
Below, each entry is listed alongside its reported log10 of IC50.
The common logarithm of IC50 in nM is what is listed.

Would you please look over these solved cases?
CCn1c(C)c(-c2ccnc(Nc3ccc(Cl)cc3)n2)sc1=O = 2.00
Cc1c(-c2ccnc(Nc3ccc(S(=O)(=O)NCCO)cc3)n2)sc(=O)n1C = 0.92
CCn1c(C)c(-c2ccnc(Nc3ccc(Cl)c(C)c3)n2)sc1=O = 2.73
CC(=O)NCc1cccc(Nc2nccc(-c3sc(=O)n(C)c3C)n2)c1 = 1.59
Cc1c(-c2ccnc(Nc3ccc(N4CCN(Cc5ccccc5)CC4)cc3)n2)sc(=O)n1C = 1.98
CCn1c(C)c(-c2ccnc(Nc3ccc(C)c(O)c3)n2)sc1=O = 1.49
Cc1c(-c2ccnc(Nc3cccc(S(=O)(=O)NCCO)c3)n2)sc(=O)n1C = 1.40
Cc1c(-c2ccnc(Nc3cc(Br)cc(C(F)(F)F)c3)n2)sc(=O)n1C = 1.79

Query: Quick one: log10 of IC50 of Cc1c(-c2ccnc(Nc3ccc(C#N)c(C(F)(F)F)c3)n2)sc(=O)n1C ?
Response: 0.83

Query: Reported log10 of IC50 for CC(=O)NCc1ccc(Nc2nccc(-c3sc(=O)n(C)c3C)n2)cc1 : what is it?
Response: 1.26

Query: Fill in the blank: the reported log10 of IC50 of Cc1c(-c2ccnc(Nc3cccc(S(N)(=O)=O)c3)n2)sc(=O)n1C is ____.
Response: 0.26

----------
# STUDY_TARGET: UniProtKB O14965
# Sequence (O14965 whole entry): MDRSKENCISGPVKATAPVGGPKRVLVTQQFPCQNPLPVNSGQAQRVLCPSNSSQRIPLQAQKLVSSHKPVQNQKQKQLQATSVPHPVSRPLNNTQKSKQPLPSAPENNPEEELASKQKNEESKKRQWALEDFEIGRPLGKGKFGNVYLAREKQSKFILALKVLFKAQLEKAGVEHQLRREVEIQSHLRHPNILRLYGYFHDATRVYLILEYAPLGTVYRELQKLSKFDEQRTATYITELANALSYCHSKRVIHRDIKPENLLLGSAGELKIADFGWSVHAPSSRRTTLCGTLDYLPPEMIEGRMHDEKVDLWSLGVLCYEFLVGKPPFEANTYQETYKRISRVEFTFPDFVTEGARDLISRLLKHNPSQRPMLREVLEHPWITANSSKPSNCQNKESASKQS
Measured pKi accompanies every entry in the list below.
Reminder that pKi means the negative base-10 logarithm of the concentration expressed in mol/L.

Recorded results for 4 compounds are shown here.
CNc1cc(Nc2nccc(-c3sc(=O)n(C)c3C)n2)cc(C(F)(F)F)c1 [Compound 76] = 6.82
COCCNS(=O)(=O)c1ccc(Nc2nccc(-c3sc(=O)n(C)c3C)n2)cc1 [Compound 65] = 6.28
CCNS(=O)(=O)c1cccc(Nc2nccc(-c3sc(=O)n(C)c3C)n2)c1 [Compound 62] = 6.39
CC(=O)NCc1ccc(Nc2nccc(-c3sc(=O)n(C)c3C)n2)cc1 [Compound 59] = 6.96

Now examine the next entry.
Query: Using the record for Cc1c(-c2ccnc(Nc3cccc(S(=O)(=O)NCCO)c3)n2)sc(=O)n1C [Compound 75] , report its pKi.
Response: 6.60

----------
# STUDY_TARGET: CDK9/cyclin T1 (Homo sapiens)
# ASSAY_PROCEDURE: Kinase assay CDK9/cyclin T1
# EXPERIMENTAL_CONTEXT: Ki calculated (Cheng-Prusoff) from experimentally determined IC50 and Km,ATP; read-out: Kinase Inhibition Ki CDK9 - cyclin T1
Each entry below lists one item and its recorded pKi value.
Note: pKi values are expressed as the negative base-10 logarithm of concentration in M.

Previously resolved entries follow.
CC(=O)N1CCN(c2cccc(Nc3nccc(-c4sc(=O)n(C)c4C)n3)c2)CC1 = 7.52
Cc1c(-c2ccnc(N)n2)sc(=O)n1C = 6.89
COCCNS(=O)(=O)c1cccc(Nc2nccc(-c3sc(=O)n(C)c3C)n2)c1 = 8.32
CCn1c(C)c(-c2ccnc(Nc3ccc(N4CCOCC4)cc3)n2)sc1=O = 6.16
Cc1c(-c2ccnc(Nc3cccc(C(F)(F)F)c3)n2)sc(=O)n1C = 5.74

Next compound, please.
Query: Returns the measured pKi for the input compound. Input: Cc1c(-c2ccnc(Nc3ccc(N4CCNCC4)c(Cl)c3)n2)sc(=O)n1C
Response: 8.47
